# Test system: Plasma
# protocol summary: Cmax in plasma of NIH-III mouse xenografted with human HCT116 cells at 1.12 mmol/kg, iv administered as single dose by HPLC analysis
# Assay type: ADME, organism-based
# Set-up: dose 1.12 mmol/kg, route intravenous
# experimental parameters: in vivo
attribute measured: Cmax (µM)

| smiles data | units of measure | experimental value |
| --- | --- | --- |
| O=[N+]([O-])c1nccn1CCS(=O)(=O)NCCN1CCOCC1 | µM | 1040 |

###

# protocol summary: Tmax in plasma of NIH-III mouse xenografted with human HCT116 cells at 1.24 mmol/kg, iv administered as single dose by HPLC analysis
# Type: ADME, organism-based
attribute measured: Tmax

| compound | attribute measured | experimental value |
| --- | --- | --- |
| O=[N+]([O-])c1cncn1CCN1CCOCC1 [NIMORAZOLE] | Tmax | 5 min |
